Reference for the values: patent US20260167623A1

Catalogue of compounds with associated pIC50
Test system: CDK2 (Homo sapiens)
Construct: High-Throughput Measurement of Cellular Endogenous CDK2; endogenous in cells
Measurement description: Inhibition of CDK2: phospho-Rb (S807/811) HTRF measurement in OVCAR3 cells, 24 h
Setup conditions: 24 h compound treatment, read-out: pRB_OVCAR3_24h
pIC50: −log10 of the molar value.

Use the examples below as a reference point.
INSERT INTO results (compound, test_system, meas_value) VALUES
  ('Cc1ncsc1-c1ccc([C@H](C)NC(=O)[C@@H]2C[C@@H](O)CN2C(=O)[C@@H](NC(=O)CC2CCN(Cc3cccc(S(=O)(=O)N4CCC(Nc5ncc(C(F)(F)F)cn5)CC4)c3)CC2)C(C)(C)C)cc1', 'CDK2 (Homo sapiens)', '6.30 to 7.00'),
  ('Cn1nc(N2CCC(=O)NC2=O)c2ccc(C3CCC(CN4CCN(c5cccc(S(=O)(=O)N6CCC(Nc7ncc(Cl)cn7)CC6)c5)CC4)CC3)cc21 (centres unmarked)', 'CDK2 (Homo sapiens)', '7.00 to 9.00'),
  ('O=C1CCC(NC(=O)c2ccc(C3CCN(CC4CCN(c5cccc(S(=O)(=O)N6CCC(Nc7ncc(Cl)cn7)CC6)c5)CC4)CC3)cc2F)C(=O)N1 (centres unmarked)', 'CDK2 (Homo sapiens)', '5.60 to 6.30'),
  ('O=C1CCC(N2Cc3cc(N4CCN(Cc5cccc(S(=O)(=O)N6CCC(Nc7ncc(Cl)cn7)CC6)c5)CC4)c(F)cc3C2=O)C(=O)N1 (centres unmarked)', 'CDK2 (Homo sapiens)', '6.30 to 7.00'),
  ('Cn1nc(N2CCC(=O)NC2=O)c2ccc(C3CCN(CC4(C)CCN(c5cccc(S(=O)(=O)N6CCC(Nc7ncc(Cl)cn7)CC6)c5)CC4)CC3)cc21', 'CDK2 (Homo sapiens)', '7.00 to 9.00'),
  ('Cn1nc(N2CCC(=O)NC2=O)c2ccc(C3CCN(CC4CCN(c5cc(S(=O)(=O)N6CCC(Nc7ncc(C(F)(F)F)cn7)CC6)ccc5C#N)CC4)CC3)c(F)c21', 'CDK2 (Homo sapiens)', '7.00 to 9.00'),
  ('Cn1nc(-n2ccc(=O)[nH]c2=O)c2ccc(C3CCN(CC4CCN(c5cccc(S(=O)(=O)N6CCC(Nc7ncc(C(F)(F)F)cn7)CC6)c5)CC4)CC3)cc21', 'CDK2 (Homo sapiens)', '7.00 to 9.00');

Item Cn1nc(N2CCC(=O)NC2=O)c2ccc(N3CCC(NCc4cccc(S(=O)(=O)N5CCC(Nc6ncc(C(F)(F)F)cn6)CC5)c4)CC3)cc21 with CDK2 (Homo sapiens) - pIC50? 5.60 to 6.30
